MEASUREMENT NOTES: Drug concentration in Wistar Hann rat brain at 5 mg/kg, sc after 1 hr
Format: ADME, organism-based
CONDITION DESCRIPTION: read-out: Drug uptake
QUANTITY MEASURED: concentration at 1 h (nM)
Numbers only, in nM.

Looking up Cn1ccc(-c2ccc(Cn3cc(C(=O)N[C@H]4CCOC[C@@H]4O)c4ncccc43)cc2)n1 , I see its concentration at 1 h listed as 1050

----------
MEASUREMENT NOTES: Drug concentration in Wistar Hann rat brain at 5 mg/kg, sc after 6 hrs
Assay type: ADME, organism-based
CONDITION DESCRIPTION: read-out: Drug uptake
QUANTITY MEASURED: concentration at 6 h (nM)
Answers are plain numbers, in nM.

Record Cn1ccc(-c2ccc(Cn3cc(C(=O)N[C@H]4CCOC[C@@H]4O)c4ncccc43)cc2)n1 , field concentration at 6 h: 409

----------
MEASUREMENT NOTES: AUC (0 to infinity) in Wistar Hann rat brain at 5 mg/kg, sc
Type: ADME, organism-based
Design: dose 5 mg/kg, route subcutaneous, time infinity
QUANTITY MEASURED: AUC(0-inf) (ng·h/mL)
Numbers only, in ng·h/mL.

For Cn1ccc(-c2ccc(Cn3cc(C(=O)N[C@H]4CCOC[C@@H]4O)c4ncccc43)cc2)n1 the molecule record lists AUC(0-inf) as 2680

----------
MEASUREMENT NOTES: Ratio of drug level in CSF to plasma in Wistar Hann rat at 5 mg/kg, sc after 2 hrs
Assay type: ADME, organism-based
CONDITION DESCRIPTION: CSF and plasma
QUANTITY MEASURED: Kp at 2 h
Answers are plain numbers.

Reported Kp at 2 h for Cn1ccc(-c2ccc(Cn3cc(C(=O)N[C@H]4CCOC[C@@H]4O)c4ncccc43)cc2)n1 was 0.03

----------
MEASUREMENT NOTES: Oral bioavailability in Wistar Hann rat
Assay type: ADME, organism-based
CONDITION DESCRIPTION: in vivo
QUANTITY MEASURED: bioavailability (%)
Answers are plain numbers, in %.

Sure, the documented bioavailability for Cn1ccc(-c2ccc(Cn3cc(C(=O)N[C@H]4CCOC[C@@H]4O)c4ncccc43)cc2)n1 is 69

----------
MEASUREMENT NOTES: AUC (0 to tlast) in Wistar Hann rat brain at 5 mg/kg, sc
Format: ADME, organism-based
QUANTITY MEASURED: AUC(0-t) (ng·h/mL)
Give bare numbers, in ng·h/mL.

Measured AUC(0-t), Cn1ccc(-c2ccc(Cn3cc(C(=O)N[C@H]4CCOC[C@@H]4O)c4ncccc43)cc2)n1 : 1830

----------
MEASUREMENT NOTES: Drug concentration in Wistar Hann rat CSF at 5 mg/kg, sc after 4 hrs
Format: ADME, organism-based, Cerebrospinal fluid
CONDITION DESCRIPTION: read-out: Drug uptake
QUANTITY MEASURED: concentration at 4 h (nM)
One number for each entry, in nM.

Cn1ccc(-c2ccc(Cn3cc(C(=O)N[C@H]4CCOC[C@@H]4O)c4ncccc43)cc2)n1 has a reported concentration at 4 h of 76.2

----------
MEASUREMENT NOTES: Ratio of unbound AUC in brain to plasma in C57BL/6j mouse at […], sc after 1 hr
Type: ADME, organism-based
CONDITION DESCRIPTION: read-out: Ratio AUC
QUANTITY MEASURED: Kp uu at 1 h
Answers are plain numbers.

// Cn1ccc(-c2ccc(Cn3cc(C(=O)N[C@H]4CCOC[C@@H]4O)c4ncccc43)cc2)n1 : Kp uu at 1 h value = 0.1

----------
MEASUREMENT NOTES: AUC in Wistar Hann rat at 2 mg/kg, po
Format: ADME, organism-based
CONDITION DESCRIPTION: in vivo
QUANTITY MEASURED: AUC (ng·h/mL)
Numbers only, in ng·h/mL.

The recorded AUC for entry Cn1ccc(-c2ccc(Cn3cc(C(=O)N[C@H]4CCOC[C@@H]4O)c4ncccc43)cc2)n1 equals 4510
